# measurement-description: LNP size distribution, PDI and ζ potential by dynamic light scattering
# Assay type: physicochemical
# condition-parameters: LNP-siRNA formulations, DLS
measurement-kind: PDI
Note: the reply should be a number with no unit written.

Some solved entries appear below for comparison.
>>> data_value("CCCCC/C=C\\C/C=C\\CCCCCCCCN(CCCCCCCC/C=C\\C/C=C\\CCCCC)OC(=O)CN(C)C")
0.04
>>> data_value("CCCCC/C=C\\C/C=C\\CCCCCCCCNN(CCCCCCCC/C=C\\C/C=C\\CCCCC)CCCCN(C)C")
0.06
>>> data_value("CCCCC/C=C\\C/C=C\\CCCCCCCCN(CCCCCCCC/C=C\\C/C=C\\CCCCC)NC(=O)CCCN1CCN(C)CC1")
0.16
>>> data_value("CCCCC/C=C\\C/C=C\\CCCCCCCCNN(CCCCCCCC/C=C\\C/C=C\\CCCCC)CCN(C)C")
0.14

Could you now look at the following compound, please?
For the compound shown here, CCCCC/C=C\C/C=C\CCCCCCCCN(CCCCCCCC/C=C\C/C=C\CCCCC)CCOC(=O)CCCN(C)C , give the reported PDI. 0.08

Reference source: patent US11851389B2
